For each record, write down the corresponding TLR8 LEC.
- subject_of_test: human TLR8 (Homo sapiens, UniProt Q9NR97)
- Construct: expressed in transfected cells; host or cells: HEK293 cells, transient transfection with TLR8 plasmid and NFκB-luc plasmid
- Sequence (Q9NR97 27-1041): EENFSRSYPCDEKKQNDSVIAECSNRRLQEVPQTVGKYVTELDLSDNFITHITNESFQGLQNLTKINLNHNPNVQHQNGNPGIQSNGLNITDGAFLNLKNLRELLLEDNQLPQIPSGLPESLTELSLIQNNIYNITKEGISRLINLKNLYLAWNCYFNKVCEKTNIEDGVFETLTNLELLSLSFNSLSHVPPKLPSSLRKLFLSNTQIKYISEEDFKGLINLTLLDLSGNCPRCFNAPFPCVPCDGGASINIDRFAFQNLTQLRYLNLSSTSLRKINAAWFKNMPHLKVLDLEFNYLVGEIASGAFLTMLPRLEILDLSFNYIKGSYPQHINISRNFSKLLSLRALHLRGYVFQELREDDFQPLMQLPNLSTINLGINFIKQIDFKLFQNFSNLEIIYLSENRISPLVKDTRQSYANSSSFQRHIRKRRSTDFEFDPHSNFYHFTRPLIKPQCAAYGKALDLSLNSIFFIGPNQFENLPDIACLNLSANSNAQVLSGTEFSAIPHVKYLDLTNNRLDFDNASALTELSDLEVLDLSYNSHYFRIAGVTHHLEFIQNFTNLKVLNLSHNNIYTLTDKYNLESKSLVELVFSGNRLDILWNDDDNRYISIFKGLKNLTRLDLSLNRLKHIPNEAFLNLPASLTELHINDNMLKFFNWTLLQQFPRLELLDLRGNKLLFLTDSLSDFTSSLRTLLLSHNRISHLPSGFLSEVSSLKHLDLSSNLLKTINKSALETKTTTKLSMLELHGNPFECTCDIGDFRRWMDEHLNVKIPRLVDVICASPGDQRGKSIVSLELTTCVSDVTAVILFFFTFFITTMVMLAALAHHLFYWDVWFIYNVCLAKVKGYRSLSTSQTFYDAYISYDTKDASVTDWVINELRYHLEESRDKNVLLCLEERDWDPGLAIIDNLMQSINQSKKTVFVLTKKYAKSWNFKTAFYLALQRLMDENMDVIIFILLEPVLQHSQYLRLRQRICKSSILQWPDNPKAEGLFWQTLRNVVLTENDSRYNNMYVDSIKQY
- test: TLR8 cellular reporter assay (HEK293, NFκB-luc)
- Format: cell-based
- test_context: HEK293 cells transfected with CMV-TLR8 and NFκB-luc, 6 hours incubation; lowest effective concentration
- Protocol: The ability of compounds to activate human TLR7 and/or TLR8 was assessed in a cellular reporter assay using HEK293 cells transiently transfected with a TLR7 or TLR8 expression vector and NFκB-luc reporter construct. Briefly, HEK293 cells were grown in culture medium (DMEM supplemented with 10% FCS and 2 mM Glutamine). […] Thirty microliters of cells were then dispensed into each well in 384-well plates, where 10 μL of compound in 4% DMSO was already present. […]

// worked examples, TLR8 LEC included
Entry under test: "COCCNc1nc(N)nc2ccn(Cc3ccccc3OC(F)F)c12" . Its TLR8 LEC was >25 µM

Entry under test: "CCC[C@@H](CCO)Nc1nc(N)nc2ccn(Cc3ccccn3)c12" . Its TLR8 LEC was 6.47 µM

Entry under test: "CC(C)=CCNc1nc(N)nc2ccn(Cc3ccccc3)c12" . Its TLR8 LEC was >25 µM

Entry under test: "COCCNc1nc(N)nc2ccn(Cc3cccc(CN4CCCC4)c3)c12" . Its TLR8 LEC was >25 µM

Entry under test: CCCCNc1nc(N)nc2c(C)cn(Cc3ccccc3)c12 [Compound 58] . Its TLR8 LEC was >25 µM

Entry under test: "Nc1nc(NCc2nccs2)c2c(ccn2Cc2ccccn2)n1" . Its TLR8 LEC was >25 µM

Entry under test: "Cc1cc(CNc2nc(N)nc3ccn(Cc4cn(-c5ccccc5)nn4)c23)no1" . Its TLR8 LEC was >25 µM

Entry under test: "Cc1cc(CNc2nc(N)nc3ccn(Cc4ncccn4)c23)no1" . Its TLR8 LEC was >25 µM

Please find the next molecule below.
Entry under test: "CCCNc1nc(N)nc2ccn(Cc3ccccc3)c12" . Its TLR8 LEC was >25 µM

====

- subject_of_test: human TLR7 (Homo sapiens, UniProt Q9NYK1)
- Construct: expressed in transfected cells; host or cells: HEK293 cells, transient transfection with CMV-TLR7 plasmid and NFκB-luc plasmid
- Sequence (Q9NYK1 27-1049): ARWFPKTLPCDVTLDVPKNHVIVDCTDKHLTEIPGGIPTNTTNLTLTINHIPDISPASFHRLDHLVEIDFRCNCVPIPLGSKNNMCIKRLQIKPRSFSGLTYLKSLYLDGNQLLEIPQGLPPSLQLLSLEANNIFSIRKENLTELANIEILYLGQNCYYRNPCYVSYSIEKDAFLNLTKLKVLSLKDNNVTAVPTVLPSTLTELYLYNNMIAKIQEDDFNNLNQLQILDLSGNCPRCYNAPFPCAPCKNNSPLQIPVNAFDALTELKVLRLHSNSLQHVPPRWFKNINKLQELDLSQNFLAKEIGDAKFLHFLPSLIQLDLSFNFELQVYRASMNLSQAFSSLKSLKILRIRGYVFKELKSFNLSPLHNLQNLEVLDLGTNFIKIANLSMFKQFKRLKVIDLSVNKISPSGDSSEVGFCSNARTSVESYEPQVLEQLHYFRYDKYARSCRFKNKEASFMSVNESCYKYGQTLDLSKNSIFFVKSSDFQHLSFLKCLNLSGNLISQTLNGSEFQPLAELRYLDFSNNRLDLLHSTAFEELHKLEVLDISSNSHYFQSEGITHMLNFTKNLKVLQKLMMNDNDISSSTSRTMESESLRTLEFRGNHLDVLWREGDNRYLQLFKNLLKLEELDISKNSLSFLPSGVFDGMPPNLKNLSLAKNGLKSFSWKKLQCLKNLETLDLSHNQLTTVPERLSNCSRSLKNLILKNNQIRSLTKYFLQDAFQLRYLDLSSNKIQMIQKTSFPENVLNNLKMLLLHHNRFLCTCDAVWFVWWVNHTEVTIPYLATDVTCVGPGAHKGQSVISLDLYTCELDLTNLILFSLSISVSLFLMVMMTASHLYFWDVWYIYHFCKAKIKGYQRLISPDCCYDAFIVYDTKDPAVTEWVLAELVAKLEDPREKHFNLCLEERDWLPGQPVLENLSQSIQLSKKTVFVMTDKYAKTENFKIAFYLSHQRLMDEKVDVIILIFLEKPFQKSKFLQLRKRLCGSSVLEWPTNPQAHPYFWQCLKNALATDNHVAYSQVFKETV
- test: TLR7 cellular reporter assay (HEK293, NFκB-luc)
- Type: cell-based
- test_context: HEK293 cells transfected with CMV-TLR7 and NFκB-luc, 6 hours incubation; lowest effective concentration
Mark each entry yes (1) if its TLR7 LEC sits below 0.06 µM, and no (0) for all others.

Solved cases (4 shown):
I'd appreciate it if you could check whether COCCn1ccc2nc(N)nc(N[C@@H](C)c3ccccn3)c21 (single isomer, unassigned) has TLR7 LEC smaller than 0.06 µM.
no (0)

I'd appreciate it if you could check whether "COc1ccc(Cn2ccc3nc(N)nc(NCc4cc(C)on4)c32)nc1" has TLR7 LEC smaller than 0.06 µM.
yes (1)

I'd appreciate it if you could check whether "CCCCNc1nc(N)nc2ccn(Cc3ccccc3Br)c12" has TLR7 LEC smaller than 0.06 µM.
no (0)

I'd appreciate it if you could check whether COCCn1ccc2nc(N)nc(NC(C)c3ccccn3)c21 (centres unmarked) has TLR7 LEC smaller than 0.06 µM.
no (0)

Continuing:
I'd appreciate it if you could check whether "COc1cnccc1Cn1ccc2nc(N)nc(NCc3cc(C)on3)c21" has TLR7 LEC smaller than 0.06 µM.
yes (1)

I'd appreciate it if you could check whether "CCC[C@@H](CCO)Nc1nc(N)nc2ccn(Cc3c(OC)cccc3OC)c12" has TLR7 LEC smaller than 0.06 µM.
yes (1)

I'd appreciate it if you could check whether COCCn1ccc2nc(N)nc(NC(C)COC)c21 (centres unmarked) has TLR7 LEC smaller than 0.06 µM.
no (0)

I'd appreciate it if you could check whether "CCCCNc1nc(N)nc2ccn(CCN3CCOCC3)c12" has TLR7 LEC smaller than 0.06 µM.
yes (1)
